- subject-of-test: Sodium-dependent dopamine transporter (Homo sapiens, UniProt Q01959)
- Sequence (Q01959 whole entry): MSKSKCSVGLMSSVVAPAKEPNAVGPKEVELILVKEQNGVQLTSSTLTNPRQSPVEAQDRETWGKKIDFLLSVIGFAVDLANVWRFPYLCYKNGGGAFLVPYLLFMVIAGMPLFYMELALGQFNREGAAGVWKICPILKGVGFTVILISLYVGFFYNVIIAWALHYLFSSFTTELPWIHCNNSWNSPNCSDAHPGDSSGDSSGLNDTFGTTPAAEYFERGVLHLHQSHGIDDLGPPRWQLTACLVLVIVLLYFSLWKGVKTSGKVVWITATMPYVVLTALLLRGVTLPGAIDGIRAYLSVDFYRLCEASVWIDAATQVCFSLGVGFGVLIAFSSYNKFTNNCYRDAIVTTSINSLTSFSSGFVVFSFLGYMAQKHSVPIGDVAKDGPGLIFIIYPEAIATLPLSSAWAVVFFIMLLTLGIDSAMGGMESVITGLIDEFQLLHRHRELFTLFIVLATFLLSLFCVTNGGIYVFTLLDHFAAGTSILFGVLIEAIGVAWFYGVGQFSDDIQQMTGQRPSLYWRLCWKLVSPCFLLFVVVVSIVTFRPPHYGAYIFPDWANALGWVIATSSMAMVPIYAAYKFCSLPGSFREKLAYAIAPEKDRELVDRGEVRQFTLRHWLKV
- assay-overview: Displacement of [3H]-dopamine from human DAT expressed in CHO cells by TopCounting analysis
pIC50: −log10 of the molar value.
Use True when the recorded pIC50 is no lower than 6; use False when it is lower.

Look over these answered cases.
compound="CS(=O)(=O)CC(c1ccc(Cl)c(Cl)c1)C1CCNCC1 (racemic)" assigned_class=False
compound=COC[C@H](c1ccc(Cl)c(Cl)c1)C1CCNCC1.Cl assigned_class=True
compound="CCOC(=O)C(c1ccc(Cl)c(Cl)c1)C1CCNCC1 (racemic)" assigned_class=True
compound="COCC(c1ccc(Cl)c(Cl)c1)C1CCNCC1.Cl (racemic)" assigned_class=True
compound="COCC(c1ccc(Cl)cc1)C1CCNCC1 (racemic)" assigned_class=False
compound="CC(c1ccc(Cl)c(Cl)c1)C1CCNCC1.Cl (racemic)" assigned_class=True

Is it the case that COC[C@@H](c1ccc(Cl)c(Cl)c1)C1CCNCC1.Cl has pIC50 reaching or exceeding 6?
True

----------
- subject-of-test: CYP2D6 (Homo sapiens, UniProt P10635)
- Sequence (P10635 whole entry): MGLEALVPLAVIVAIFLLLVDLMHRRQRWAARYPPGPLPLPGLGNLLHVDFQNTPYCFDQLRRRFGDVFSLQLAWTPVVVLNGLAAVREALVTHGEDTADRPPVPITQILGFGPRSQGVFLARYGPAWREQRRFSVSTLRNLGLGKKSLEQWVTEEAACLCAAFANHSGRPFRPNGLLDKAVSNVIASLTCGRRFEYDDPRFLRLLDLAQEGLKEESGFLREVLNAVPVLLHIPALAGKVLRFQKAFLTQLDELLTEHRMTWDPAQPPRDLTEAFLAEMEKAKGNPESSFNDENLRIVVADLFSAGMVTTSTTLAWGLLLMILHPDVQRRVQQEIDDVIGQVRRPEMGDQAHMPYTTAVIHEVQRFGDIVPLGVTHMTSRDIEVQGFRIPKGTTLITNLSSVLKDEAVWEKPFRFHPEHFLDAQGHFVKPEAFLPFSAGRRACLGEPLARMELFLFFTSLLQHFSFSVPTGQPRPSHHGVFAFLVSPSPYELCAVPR
- assay-overview: Inhibition of CYP2D6 (unknown origin) assessed as 1'-hydroxybufuralol production at 10 uM after 20 mins by LC/MS/MS analysis relative to control
- Format: ADME
- test-parameters: probe bufuralol (measured as 1'-hydroxybufuralol production)
recorded-endpoint: inhibition at 20 min, 10 µM (%)
Your answer is read as %, so omit the unit and give the number.

Example molecules with recorded inhibition at 20 min, 10 µM:
molecule="CCOCC(c1ccc(Cl)c(Cl)c1)C1CCNCC1.Cl (racemic)" recorded_endpoint="inhibition at 20 min, 10 µM" assay_result=44
molecule="COCC(c1ccc2ccccc2c1)C1CCNCC1 (racemic)" recorded_endpoint="inhibition at 20 min, 10 µM" assay_result=22

# value of inhibition at 20 min, 10 µM, CYP2D6 (Homo sapiens, UniProt P10635), item COC(=O)C(c1ccc(Cl)c(Cl)c1)C1CCNCC1 (racemic) = 13

# value of inhibition at 20 min, 10 µM, CYP2D6 (Homo sapiens, UniProt P10635), item CCC(=O)C(c1ccc(Cl)c(Cl)c1)C1CCNCC1 (racemic) = 6.1

# value of inhibition at 20 min, 10 µM, CYP2D6 (Homo sapiens, UniProt P10635), item CCOC(=O)C(c1ccc(Cl)c(Cl)c1)C1CCNCC1 (racemic) = 38

# value of inhibition at 20 min, 10 µM, CYP2D6 (Homo sapiens, UniProt P10635), item CCCC(=O)C(c1ccc(Cl)c(Cl)c1)C1CCNCC1 (racemic) = 20

# value of inhibition at 20 min, 10 µM, CYP2D6 (Homo sapiens, UniProt P10635), item COCC(c1cccc(Cl)c1)C1CCNCC1 (racemic) = 2

# value of inhibition at 20 min, 10 µM, CYP2D6 (Homo sapiens, UniProt P10635), item CC(=O)C(c1ccc(Cl)c(Cl)c1)C1CCNCC1.Cl (racemic) = 11

# value of inhibition at 20 min, 10 µM, CYP2D6 (Homo sapiens, UniProt P10635), item CS(=O)(=O)CC(c1ccc(Cl)c(Cl)c1)C1CCNCC1 (racemic) = 3.9

# value of inhibition at 20 min, 10 µM, CYP2D6 (Homo sapiens, UniProt P10635), item CSCC(c1ccc(Cl)c(Cl)c1)C1CCNCC1.Cl (racemic) = 32

# value of inhibition at 20 min, 10 µM, CYP2D6 (Homo sapiens, UniProt P10635), item COC[C@H](c1ccc(Cl)c(Cl)c1)C1CCNCC1.Cl = 14

----------
- subject-of-test: Sodium-dependent serotonin transporter (Homo sapiens, UniProt P31645)
- Sequence (P31645 whole entry): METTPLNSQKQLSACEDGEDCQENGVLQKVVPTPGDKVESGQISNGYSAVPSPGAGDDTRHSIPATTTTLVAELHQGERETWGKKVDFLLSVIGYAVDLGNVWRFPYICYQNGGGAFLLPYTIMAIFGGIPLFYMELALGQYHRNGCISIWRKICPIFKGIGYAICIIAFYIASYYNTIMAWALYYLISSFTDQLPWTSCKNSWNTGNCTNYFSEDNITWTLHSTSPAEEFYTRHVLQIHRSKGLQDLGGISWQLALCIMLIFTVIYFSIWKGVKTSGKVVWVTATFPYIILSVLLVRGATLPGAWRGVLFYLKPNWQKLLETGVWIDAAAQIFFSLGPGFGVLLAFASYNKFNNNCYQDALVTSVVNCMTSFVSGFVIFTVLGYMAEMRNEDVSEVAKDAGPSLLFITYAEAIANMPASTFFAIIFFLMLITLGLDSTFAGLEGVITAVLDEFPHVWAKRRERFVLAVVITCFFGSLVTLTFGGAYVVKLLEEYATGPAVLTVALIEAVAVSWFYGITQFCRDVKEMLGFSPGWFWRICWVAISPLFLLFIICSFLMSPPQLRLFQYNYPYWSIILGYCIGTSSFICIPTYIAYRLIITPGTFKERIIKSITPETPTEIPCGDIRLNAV
- assay-overview: Displacement of [3H]-hydroxytryptamine from human SERT expressed in CHO cells by TopCounting analysis
recorded-endpoint: IC50 (nM)
Your answer is read as nM, so omit the unit and give the number.

molecule="COC(=O)C(c1ccc(Cl)c(Cl)c1)C1CCNCC1 (racemic)" assay_result=5.2
molecule="OCC(c1ccc(Cl)c(Cl)c1)C1CCNCC1 (racemic)" assay_result=79
molecule="COCC(c1ccc2ccccc2c1)C1CCNCC1 (racemic)" assay_result=2.1
molecule=COC[C@@H](c1ccc(Cl)c(Cl)c1)C1CCNCC1.Cl assay_result=5.7
molecule="COCC(c1ccc(F)c(Cl)c1)C1CCNCC1 (racemic)" assay_result=32

# value of IC50, Sodium-dependent serotonin transporter (Homo sapiens, UniProt P31645), item CC(c1ccc(Cl)c(Cl)c1)C1CCNCC1.Cl (racemic) = 12

# value of IC50, Sodium-dependent serotonin transporter (Homo sapiens, UniProt P31645), item COC[C@H](c1ccc(Cl)c(Cl)c1)C1CCNCC1.Cl = 130

----------
// reported pIC50 for each item listed
- subject-of-test: Sodium-dependent noradrenaline transporter (Homo sapiens, UniProt P23975)
- Sequence (P23975 whole entry): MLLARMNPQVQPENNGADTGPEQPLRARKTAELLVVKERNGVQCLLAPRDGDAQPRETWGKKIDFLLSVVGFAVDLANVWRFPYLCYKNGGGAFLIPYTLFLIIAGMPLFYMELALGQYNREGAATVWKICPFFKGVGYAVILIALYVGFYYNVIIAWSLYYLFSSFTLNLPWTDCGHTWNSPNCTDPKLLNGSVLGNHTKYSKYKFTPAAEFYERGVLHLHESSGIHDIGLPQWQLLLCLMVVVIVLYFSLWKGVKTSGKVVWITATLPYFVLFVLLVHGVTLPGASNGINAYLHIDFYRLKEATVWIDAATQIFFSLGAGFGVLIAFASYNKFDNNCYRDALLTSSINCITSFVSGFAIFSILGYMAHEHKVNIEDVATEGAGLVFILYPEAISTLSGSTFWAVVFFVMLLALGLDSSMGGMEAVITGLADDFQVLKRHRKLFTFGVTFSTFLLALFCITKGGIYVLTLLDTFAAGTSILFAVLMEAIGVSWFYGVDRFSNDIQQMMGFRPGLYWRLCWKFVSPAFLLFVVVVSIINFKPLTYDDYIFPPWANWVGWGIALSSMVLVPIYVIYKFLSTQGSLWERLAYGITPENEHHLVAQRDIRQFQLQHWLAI
- assay-overview: Displacement of [3H]-norepinephrine from human NET expressed in CHO cells by TopCounting analysis
Friendly reminder that pIC50 comes from taking -log10 of the concentration in mol/L.

Sample CCCC(=O)C(c1ccc(Cl)c(Cl)c1)C1CCNCC1 (racemic) ; pIC50 observed: 7.66

Sample COCC(c1ccc(Cl)c(Cl)c1)C1CCNCC1.Cl (racemic) ; pIC50 observed: 7.85

Sample COCC(c1cccc(Cl)c1)C1CCNCC1 (racemic) ; pIC50 observed: 7.01

Sample COCC(c1ccc2ccccc2c1)C1CCNCC1 (racemic) ; pIC50 observed: 7.44

Sample CCOCC(c1ccc(Cl)c(Cl)c1)C1CCNCC1.Cl (racemic) ; pIC50 observed: 7.55

Sample COCC(c1ccc(Cl)cc1)C1CCNCC1 (racemic) ; pIC50 observed: 6.89

Sample CCSCC(c1ccc(Cl)c(Cl)c1)C1CCNCC1 (racemic) ; pIC50 observed: 8.06

----------
- subject-of-test: UniProt P10635
- assay-overview: Inhibition of CYP2D6 (unknown origin) assessed as 1'-hydroxybufuralol production at 10 uM after 20 mins by LC/MS/MS analysis relative to control
- Type: ADME
- test-parameters: probe bufuralol (measured as 1'-hydroxybufuralol production)
// reported inhibition at 20 min, 10 µM for each item listed
Your answer is read as %, so omit the unit and give the number.

Example compounds with recorded inhibition at 20 min, 10 µM:
compound="OCC(c1ccc(Cl)c(Cl)c1)C1CCNCC1 (racemic)" subject_of_test="UniProt P10635" readout_unit=% assay_result=-1.5
compound="CC(c1ccc(Cl)c(Cl)c1)C1CCNCC1.Cl (racemic)" subject_of_test="UniProt P10635" readout_unit=% assay_result=27
compound=COC[C@@H](c1ccc(Cl)c(Cl)c1)C1CCNCC1.Cl subject_of_test="UniProt P10635" readout_unit=% assay_result=13
compound="COCC(c1ccc(Cl)cc1)C1CCNCC1 (racemic)" subject_of_test="UniProt P10635" readout_unit=% assay_result=-2.8

Sample CCSCC(c1ccc(Cl)c(Cl)c1)C1CCNCC1 (racemic) ; inhibition at 20 min, 10 µM observed: 55

Sample COCC(c1ccc(Cl)c(Cl)c1)C1CCNCC1.Cl (racemic) ; inhibition at 20 min, 10 µM observed: 5.7

Sample COCC(c1ccc(F)c(Cl)c1)C1CCNCC1 (racemic) ; inhibition at 20 min, 10 µM observed: -18

----------
// reported inhibition at 10 µM for each item listed
- subject-of-test: hERG (KCNH2) (Homo sapiens, UniProt Q12809)
- Sequence (Q12809 whole entry): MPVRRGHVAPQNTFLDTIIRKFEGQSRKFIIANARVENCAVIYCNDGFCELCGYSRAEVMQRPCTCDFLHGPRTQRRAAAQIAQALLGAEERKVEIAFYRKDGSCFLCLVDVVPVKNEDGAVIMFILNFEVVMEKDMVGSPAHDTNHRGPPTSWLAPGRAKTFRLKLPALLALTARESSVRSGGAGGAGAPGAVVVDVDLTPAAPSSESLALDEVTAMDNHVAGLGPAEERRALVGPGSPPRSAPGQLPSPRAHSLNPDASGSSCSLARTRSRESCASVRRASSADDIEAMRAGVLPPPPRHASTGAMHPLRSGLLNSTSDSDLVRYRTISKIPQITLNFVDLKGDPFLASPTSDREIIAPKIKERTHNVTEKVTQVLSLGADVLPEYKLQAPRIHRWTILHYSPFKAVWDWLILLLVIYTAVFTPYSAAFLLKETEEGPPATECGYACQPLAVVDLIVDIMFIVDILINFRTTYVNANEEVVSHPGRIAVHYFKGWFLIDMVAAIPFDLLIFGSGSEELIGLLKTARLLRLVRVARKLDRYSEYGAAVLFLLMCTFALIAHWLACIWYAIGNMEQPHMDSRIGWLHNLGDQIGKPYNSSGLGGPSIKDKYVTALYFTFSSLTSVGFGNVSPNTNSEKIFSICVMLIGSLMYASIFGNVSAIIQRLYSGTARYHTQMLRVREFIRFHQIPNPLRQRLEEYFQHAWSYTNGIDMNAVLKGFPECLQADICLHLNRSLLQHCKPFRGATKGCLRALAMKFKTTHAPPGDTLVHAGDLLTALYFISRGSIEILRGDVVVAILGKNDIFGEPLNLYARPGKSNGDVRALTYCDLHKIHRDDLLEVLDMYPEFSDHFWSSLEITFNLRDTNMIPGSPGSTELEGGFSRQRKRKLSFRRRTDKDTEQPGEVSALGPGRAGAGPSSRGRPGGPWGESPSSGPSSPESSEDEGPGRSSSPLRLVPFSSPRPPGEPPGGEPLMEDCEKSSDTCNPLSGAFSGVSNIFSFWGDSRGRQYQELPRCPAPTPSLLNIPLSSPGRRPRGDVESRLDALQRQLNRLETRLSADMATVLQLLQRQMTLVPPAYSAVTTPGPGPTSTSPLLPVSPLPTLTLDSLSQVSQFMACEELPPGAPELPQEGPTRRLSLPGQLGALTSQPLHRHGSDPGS
- assay-overview: Inhibition of human ERG channel at 10 uM by ionworks assay relative to control
Your answer is read as %, so omit the unit and give the number.

Example compounds with recorded inhibition at 10 µM:
compound="COCC(c1ccc(Cl)cc1)C1CCNCC1 (racemic)" recorded_endpoint="inhibition at 10 µM" readout_unit=% assay_result=22
compound="CCOCC(c1ccc(Cl)c(Cl)c1)C1CCNCC1.Cl (racemic)" recorded_endpoint="inhibition at 10 µM" readout_unit=% assay_result=89
compound="COCC(c1ccc2ccccc2c1)C1CCNCC1 (racemic)" recorded_endpoint="inhibition at 10 µM" readout_unit=% assay_result=38

Sample COCC(c1ccc(F)c(Cl)c1)C1CCNCC1 (racemic) ; inhibition at 10 µM observed: 24

Sample CCC(=O)C(c1ccc(Cl)c(Cl)c1)C1CCNCC1 (racemic) ; inhibition at 10 µM observed: 51

Sample COC[C@H](c1ccc(Cl)c(Cl)c1)C1CCNCC1.Cl ; inhibition at 10 µM observed: 48

Sample COCC(c1cccc(Cl)c1)C1CCNCC1 (racemic) ; inhibition at 10 µM observed: 23

----------
- subject-of-test: hERG (KCNH2) (Homo sapiens)
- assay-overview: Inhibition of human ERG channel at 10 uM by ionworks assay relative to control
recorded-endpoint: inhibition at 10 µM
Remember to put the unit after the number in your answer.

Example compounds with recorded inhibition at 10 µM:
compound="CCOC(=O)C(c1ccc(Cl)c(Cl)c1)C1CCNCC1 (racemic)" recorded_endpoint="inhibition at 10 µM" assay_result=110%
compound="OCC(c1ccc(Cl)c(Cl)c1)C1CCNCC1 (racemic)" recorded_endpoint="inhibition at 10 µM" assay_result=12%
compound="CC(c1ccc(Cl)c(Cl)c1)C1CCNCC1.Cl (racemic)" recorded_endpoint="inhibition at 10 µM" assay_result=72%

Sample COCC(c1ccc(Cl)c(Cl)c1)C1CCNCC1.Cl (racemic) ; inhibition at 10 µM observed: 42%
